Experiment summary: Acute toxicity in white mice
Condition: mouse, in vivo, po
Measurement name: LD50 (mg/kg)
Reply with just the number (in mg/kg).

Lab note: `C=COCCNC(=S)[S-].[K+]` gave LD50 of 1400

----------
Experiment summary: Acute toxicity in white mice
Condition: mouse, in vivo, ip
Measurement name: LD50 (mg/kg)
Reply with just the number (in mg/kg).

Lab note: `C=COCCNC(=S)[S-].[Na+]` gave LD50 of 260
